experiment: Cytotoxicity against human erythrocytes assessed as hemolytic activity after 60 mins; format: cell-based, Erythrocyte; conditions: read-out: HD50
Could you please mark satisfied for values of HC50 at 1 h below 7 µM and not satisfied for values at or above it?

>  <Compound structure>
C[C@@H]1CC[C@@]2(OC1)O[C@H]1C[C@H]3[C@@H]4CC=C5C[C@@H](O[C@@H]6O[C@H](CO)[C@@H](O[C@H]7O[C@H](CO)[C@@H](O)[C@@H]7O)[C@H](O)[C@H]6O[C@H]6O[C@H](C)[C@@H](O)[C@H](O)[C@@H]6O)CC[C@]5(C)[C@H]4CC[C@]3(C)[C@H]1[C@@H]2C

>  <Cat>
satisfied

$$$$
>  <Compound structure>
CC(=O)O[C@@H]1[C@@H](O)[C@@H](O)[C@H](O[C@H]2[C@H](O)[C@@H](O)[C@H](O[C@H]3CC[C@@]4(C)C(=CC[C@H]5[C@@H]6C[C@@H]7O[C@]8(CC[C@@H](C)CO8)[C@@H](C)[C@@H]7[C@@]6(C)CC[C@@H]54)C3)O[C@@H]2CO)O[C@H]1C

>  <Cat>
not satisfied

$$$$
>  <Compound structure>
C[C@@H]1CC[C@@]2(OC1)O[C@H]1C[C@H]3[C@@H]4CC=C5C[C@@H](O[C@@H]6O[C@H](CO)[C@@H](O[C@H]7O[C@H](C)[C@@H](OCCNC(=O)C(F)(F)F)[C@H](O)[C@@H]7O)[C@H](O)[C@H]6O[C@H]6O[C@H](C)[C@@H](O)[C@H](O)[C@@H]6O)CC[C@]5(C)[C@H]4CC[C@]3(C)[C@H]1[C@@H]2C

>  <Cat>
satisfied

$$$$
>  <Compound structure>
C[C@@H]1CC[C@@]2(OC1)O[C@H]1C[C@H]3[C@@H]4CC=C5C[C@@H](O[C@@H]6O[C@H](CO)[C@@H](O[C@@H]7O[C@@H](C)[C@H](O)[C@@H](O)[C@H]7O)[C@H](O)[C@H]6O)CC[C@]5(C)[C@H]4CC[C@]3(C)[C@H]1[C@@H]2C

>  <Cat>
not satisfied

$$$$
>  <Compound structure>
CC(=O)O[C@H]1[C@H](O)[C@H](O)[C@@H](O[C@H]2[C@H](O)[C@@H](O[C@H]3O[C@H](C)[C@@H](O)[C@H](O)[C@@H]3O)[C@H](O[C@H]3CC[C@@]4(C)C(=CC[C@H]5[C@@H]6C[C@@H]7O[C@]8(CC[C@@H](C)CO8)[C@@H](C)[C@@H]7[C@@]6(C)CC[C@@H]54)C3)O[C@@H]2CO)O[C@@H]1C

>  <Cat>
satisfied

$$$$
>  <Compound structure>
CCCCCCCCCC(=O)O[C@H]1C[C@@H]2[C@H](CC[C@]3(C)[C@@H]4[C@H](C[C@@H]23)O[C@]2(CC[C@@H](C)CO2)[C@H]4C)[C@@]2(C)C[C@@H](O)[C@H](O[C@@H]3O[C@H](CO)[C@@H](O[C@H]4O[C@H](C)[C@@H](O)[C@H](O)[C@@H]4O)[C@H](O)[C@H]3O[C@H]3O[C@H](C)[C@@H](O)[C@H](O)[C@@H]3O)C[C@H]12

>  <Cat>
satisfied

$$$$
>  <Compound structure>
C[C@@H]1CC[C@@]2(OC1)O[C@H]1C[C@H]3[C@@H]4CC=C5C[C@@H](O[C@@H]6O[C@H](CNC(=O)c7ccc([N+](=O)[O-])cc7)[C@@H](O[C@H]7O[C@H](C)[C@@H](O)[C@H](O)[C@@H]7O)[C@H](O)[C@H]6O[C@H]6O[C@H](C)[C@@H](O)[C@H](O)[C@@H]6O)CC[C@]5(C)[C@H]4CC[C@]3(C)[C@H]1[C@@H]2C

>  <Cat>
not satisfied

$$$$
>  <Compound structure>
C[C@@H]1CC[C@@]2(OC1)O[C@H]1C[C@H]3[C@@H]4CC=C5C[C@@H](O[C@@H]6O[C@H](CO)[C@@H](O[C@H]7O[C@H](C)[C@@H](OCCNS(=O)(=O)c8cccc9c(N(C)C)cccc89)[C@H](O)[C@@H]7O)[C@H](O)[C@H]6O[C@H]6O[C@H](C)[C@@H](O)[C@H](O)[C@@H]6O)CC[C@]5(C)[C@H]4CC[C@]3(C)[C@H]1[C@@H]2C

>  <Cat>
satisfied

$$$$
